- System: Plasmodium berghei
- assay procedure: Screen against P. berghei liver stage (PbLuc), transformed with Luciferase, at 2uM
- Assay type: functional, HepG2
- measurement conditions: tested at 2 uM
About 2,700 (4%) of roughly 68,000 compounds showed an effect of 50% or more. What follows is part of a selection rich in strong results, with near analogues and random picks from the rest.
Listing of recorded INHIBITION by entry.

# compound, measurement target, quantity unit, INHIBITION
rows = [
    ("CCn1nc(C)c(CCNC(=O)C2CCCN(C(=O)N(C)C)C2)c1C (stereo not drawn)", "Plasmodium berghei", "%", -17.7),
    ("COc1ccccc1CC(=O)N1CCCC1Cn1nc(C)cc1C (stereo not drawn)", "Plasmodium berghei", "%", -43.79),
    ("COc1ccccc1-n1cc(C(=O)NCCCn2ccnn2)cn1", "Plasmodium berghei", "%", 32.73),
    ("CC(C)NC(=O)N1CC(=O)c2sc(Nc3ccc(C#N)cc3)nc2C1", "Plasmodium berghei", "%", -42.69),
    ("Cc1cc(N2CCC3(CCC(=O)N(CCCO)C3)CC2)nc(N(C)C)n1", "Plasmodium berghei", "%", 57.75),
    ("Cc1ccc(NC(=O)Nc2cnc(N3CCN(C)CC3)nc2)cc1", "Plasmodium berghei", "%", -4.34),
    ("O=C(c1ccccc1-c1nc[nH]n1)N1CCOC(C(F)(F)F)C1 (stereo not drawn)", "Plasmodium berghei", "%", -99.7),
    ("COCCn1c2c(ccc1=O)CC(NCc1cccnc1OC)CC2 (stereo not drawn)", "Plasmodium berghei", "%", -1.81),
    ("Cc1nnc2n1CCN(C(=O)c1cnc3c(cnn3CC(C)C)c1)C2", "Plasmodium berghei", "%", 56.89),
    ("FC(F)(F)c1ccnc(N2CCC(c3nccn3CC3CC3)CC2)n1", "Plasmodium berghei", "%", -0.62),
    ("Cc1cnn(CC2CN(C=C3NN=C(c4occc4C)O3)CCO2)c1 (stereo not drawn)", "Plasmodium berghei", "%", -32.2),
    ("N#Cc1cccc(N2CCC3(CCC(=O)N(CC4CCCO4)C3)CC2)n1 (stereo not drawn)", "Plasmodium berghei", "%", -41.11),
    ("Cc1ccoc1C1=NNC(=CN2CCn3c(nnc3C(C)C)C2)O1", "Plasmodium berghei", "%", 83.22),
    ("Cc1ccoc1C1=NNC(=CN2CCn3c(C)nnc3C2)O1", "Plasmodium berghei", "%", -9.22),
    ("N#Cc1cccc(N2CCC3(CCC(=O)N(CC(N)=O)C3)CC2)n1", "Plasmodium berghei", "%", -30.57),
    ("CCc1nnc2n1CCN(C(=O)c1cnc3c(cnn3C(C)C)c1)C2", "Plasmodium berghei", "%", 24.05),
    ("COc1cc2cc(C(=O)NCC(=O)O)n(C)c2c(OC)c1OC", "Plasmodium berghei", "%", 16.47),
    ("CCc1nnc2n1CCN(C=C1NN=C(c3occc3C)O1)C2", "Plasmodium berghei", "%", -27.57),
    ("Cc1cc(N2CCC3(CCC(=O)N(CCO)C3)CC2)nc(N(C)C)n1", "Plasmodium berghei", "%", 19.59),
    ("CC1(C)Oc2ccc(NC(=O)c3ccc(=O)[nH]n3)cc2O1", "Plasmodium berghei", "%", 10.43),
    ("Cc1nnc2n1CCN(C(=O)c1cnc3c(cnn3C(C)C)c1)C2", "Plasmodium berghei", "%", 17.48),
    ("Cc1ccoc1C1=NNC(=CN2CCCC(Cn3cncn3)C2)O1 (stereo not drawn)", "Plasmodium berghei", "%", 3.9),
    ("O=C(c1ccc(-c2nc[nH]n2)cc1)N1CC[C@H](CO)[C@@H](O)C1", "Plasmodium berghei", "%", -94.13),
]
